Sourced from PubChem BioAssay (NCI)

I'd appreciate it if you could supply TGI values for the items below.
Tested on: MDA-MB-231 breast
test-summary: NCI tumour cell line growth inhibition, 48 h

Summary for this compound, Cc1ccc(/C=C2/SC(Nc3nc(-c4csc(NC5=NC(=O)/C(=C\c6ccc(C)cc6)S5)n4)cs3)=NC2=O)cc1 : TGI is 40.6 µM

Summary for this compound, COc1ccc2c(=O)c3ccoc3n(CC=C(C)C)c2c1 : TGI is > 100 µM

Summary for this compound, NC(=S)N/N=C(\Cc1nc2ccc(Cl)cc2[nH]c1=O)C(=O)Nc1ccc(Cl)cc1 : TGI is > 100 µM

Summary for this compound, Cc1c(C)c2c(c(N)c1C#N)C(=O)N(Nc1ccccc1)C2=O : TGI is > 100 µM

Summary for this compound, COC(=O)Nc1nc2cc(OC)c(OC)cc2c(=O)[nH]1 : TGI is > 100 µM

I'm hoping you can list TGI for every compound here, please.
1. Cc1ccccc1N=Nc1ccc(NC(=O)c2ccnn2C)c(C)c1
2. CC(C)(C)C(=O)C(C(=O)C(C)(C)C)C(=O)C(C)(C)C
3. Cc1nc(Nc2ccccc2Cl)sc1C(=O)CC(=O)C(=O)Nc1c(Cl)cccc1Cl
4. Oc1cc(-c2ccccc2)cn2c1nc1ccccc12
5. C=CC[N+]12CN3CN(CN(C3)C1)C2
6. O=S1CCS(=O)CCS(=O)CC1 (centres undefined)

1. 78.2 µM
2. > 100 µM
3. 42.9 µM
4. > 100 µM
5. 91.3 µM
6. > 100 µM

I'm hoping you can list TGI for every compound here, please.
1. Cc1nc2ccc(S(=O)(=O)Nc3ccccc3)cc2c(=O)n1NC(=O)CNc1ccccc1
2. COc1cc(OC)c2c(=O)cc(-c3ccccc3F)[nH]c2c1
3. CN(C)c1ccc(/C=c2/c3ccccc3n3nc4ccccc4c23)cc1

1: > 100 µM; 2: > 100 µM; 3: > 100 µM

* * *

System: DU-145 prostate
test-summary: NCI tumour cell line growth inhibition, 48 h
I'd appreciate it if you could supply TGI values for the items below.

These recorded examples may help you get a feel for the data.
Case CCCCCCCCCc1cc(-c2ccc(C=O)s2)sc1-c1ccc(C=O)s1 , DU-145 prostate, TGI recorded as > 100 µM

Case COc1ccc(/C=C\c2cc(OC)c(OC)c(OC)c2)cc1OC(=O)c1cccc(Cn2cc(CCOC(=O)[C@H](N)Cc3cn(C)c4ccccc34)nn2)c1 , DU-145 prostate, TGI recorded as > 100 µM

Case C=CC(c1ccccc1)[C@@]1(OC(C)=O)C(=O)C(=O)OC1C1COC(C)(C)O1 (stereo not given in full) , DU-145 prostate, TGI recorded as 54.2 µM

Case COC(=O)Nc1nc2cc(OC)c(OC)cc2c(=O)[nH]1 , DU-145 prostate, TGI recorded as > 100 µM

Okay, next one:
Case O=C1SS(=O)c2ccccc21 (stereo not given) , DU-145 prostate, TGI recorded as > 100 µM

* * *

Tested on: EKVX NSCLC
test-summary: NCI tumour cell line growth inhibition, 48 h
I'd appreciate it if you could supply TGI values for the items below.

These recorded examples may help you get a feel for the data.
Summary for this compound, CN(CCCCN1CCCC1)CCCN(C)C(=O)Cc1ccc(Cl)c(Cl)c1 : TGI is 37.6 µM

Summary for this compound, CCC1(c2c(F)c(F)c(N)c(F)c2F)CCC(=O)NC1=O (configuration not stated) : TGI is > 100 µM

Summary for this compound, C=C1C(=O)O[C@H]2[C@H]1CC/C(Cn1cc(-c3cc(C(F)(F)F)cc(C(F)(F)F)c3)nn1)=C\CC[C@@]1(C)O[C@@H]21 : TGI is 2.95 µM

Summary for this compound, CN(C)c1ccc([O][Bi]([Cl])[Cl])cc1 : TGI is > 100 µM

Summary for this compound, C[S+](C)CCOC(=O)C(=[N+]=[N-])c1ccc([N+](=O)[O-])cc1 : TGI is > 100 µM

Summary for this compound, O=C(CO)CC(=O)C(=O)Nc1ccccc1 : TGI is > 100 µM

Summary for this compound, NC(=O)C(N)=O : TGI is > 100 µM

Summary for this compound, O=C(CCc1ccccc1)ON1C(=S)NC(c2ccccc2)(c2ccccc2)C1=S : TGI is > 100 µM

Summary for this compound, N#CCCCC[N+]12CN3CN(CN(C3)C1)C2 : TGI is > 100 µM

Summary for this compound, CC(C)=CCNc1ncnc2nc[nH]c12 : TGI is > 100 µM

I'm hoping you can list TGI for every compound here, please.
1. COc1cc(C)c(/C=C/C(=O)N2C(=O)OC[C@@H]2c2ccccc2)c(C)c1
2. COc1ccc(C[C@H](N)C(=O)NC2C(CO)OC(n3cnc4c(N(C)C)ncnc43)C2O)cc1 (some centres not stated)
3. CC(OC(C)(C)C)[C@H](NC(=O)OC(C)(C)C)C(=O)O (some centres not stated)
4. CC(=O)O[C@H]1C(=O)[C@@]2(C)[C@H]([C@H](OC(=O)c3cccc(C(F)(F)F)c3)[C@]3(O)C[C@H](OC(=O)[C@H](O)[C@@H](NC(=O)c4ccccc4)c4ccccc4)C(C)=C1C3(C)C)[C@]1(OC(C)=O)CO[C@@H]1C[C@@H]2O
5. O=C(COc1ccc(OCC(=O)N2C(=O)CSC2=Nc2ccccc2)cc1)N1C(=O)CSC1=Nc1ccccc1

1: > 100 µM; 2: 1.06 µM; 3: > 100 µM; 4: > 25 µM; 5: > 100 µM

I'm hoping you can list TGI for every compound here, please.
1. COc1cccc(NC(=O)/C(CC(=O)CC(c2ccccc2)c2c(O)c3ccccc3oc2=O)=N\NC(C)(C)C)c1OC (configuration not stated)
2. CC(C)(C)c1cc(C(C)(C)C)c(SS(=O)(=O)O)c(O)c1O
3. Nc1nc(N)c(C2=CCNCC2)c(=O)[nH]1

> 100 µM
> 100 µM
> 100 µM
